Assay: Acute toxicity for oral administration in the mouse
Type: in vivo
Conditions: in vivo, 10000 mg/kg, 10 g/kg, read-out: Mortality (M+F)
Where a name gives a salt, the structure may show the parent alone.
Parameter: mortality (%)
Please reply with the bare figure in % and do not write the unit itself.

Query: Using the record for O=C(O)CCCO [NaGHB, sodium salt of gamma-hydroxybutyric acid] , state its measured mortality.
Reply: 0

###

Assay: Acute toxicity for intraperitoneal administration in the mouse
Format: in vivo
Conditions: in vivo, ip, Table 5, 95% CL 2.92-3.521
Counter-ions that a name gives are not always drawn.
Parameter: LD50 (mg/kg)
Value expressed in mg/kg; do not type the unit.

Query: Quickly give me recorded LD50 for O=C(O)CCCO [NaGHB, sodium salt of gamma-hydroxybutyric acid]
Reply: 3210

###

Experiment: Acute toxicity for oral administration in the mouse
Type: in vivo
Settings: in vivo, 11000 mg/kg, 11 g/kg, read-out: Mortality (M+F)
Where a name gives a salt, the structure may show the parent alone.
Parameter: mortality (%)
Only the number, expressed in %, is required.

Query: Quote mortality reported for O=C(O)CCCO [NaGHB, sodium salt of gamma-hydroxybutyric acid] please.
Reply: 33.3

###

Assay: Acute toxicity for intraperitoneal administration in the mouse
Assay type: in vivo
Settings: in vivo, ip, 3500 mg/kg, 3.5 g/kg, read-out: Mortality (M + F)
Structures can show the parent of a compound that is named as a salt.
Parameter: mortality
Answer with the number, then the unit.

Query: Supply mortality value. Item: O=C(O)CCCO [NaGHB, sodium salt of gamma-hydroxybutyric acid]
Reply: 66.7%

###

Experiment: Acute toxicity for intraperitoneal administration in the mouse
Format: in vivo
Details: in vivo, ip, 3000 mg/kg, 3 g/kg, read-out: Mortality (M + F)
Structures can show the parent of a compound that is named as a salt.
Parameter: mortality (%)
Report the value in % with no unit label.

Query: Input O=C(O)CCCO [NaGHB, sodium salt of gamma-hydroxybutyric acid] , output reported mortality.
Reply: 33.3

###

Test: Acute toxicity for intraperitoneal administration in the mouse
Format: in vivo
Conditions: in vivo, ip, 4000 mg/kg, 4 g/kg, read-out: Mortality (M + F)
Where a name gives a salt, the structure may show the parent alone.
Parameter: mortality (%)
Numeric answer only, unit % assumed.

Query: Quickly give me recorded mortality for O=C(O)CCCO [NaGHB, sodium salt of gamma-hydroxybutyric acid]
Reply: 100

###

Experiment: Acute toxicity for intraperitoneal administration in the mouse
Assay type: in vivo
Conditions: in vivo, ip, 2500 mg/kg, 2.5 g/kg, read-out: Mortality (M + F)
Counter-ions that a name gives are not always drawn.
Parameter: mortality
A complete answer gives the number and then names the unit.

Query: Note mortality for the compound shown: O=C(O)CCCO [NaGHB, sodium salt of gamma-hydroxybutyric acid]
Reply: 0%
